assay: Compound stability in rat liver microsomes; format: in vitro ADME; details: pH 7.4; rat liver microsomes; in vivo CLint extrapolated
property: CLint scaled at 5 μM (mL/min/kg)

>  <compound>
CCNS(=O)(=O)N1CC2CC(Nc3nc(Nc4cnn(C)c4)ncc3Cl)CC2C1 (stereo not drawn)

>  <uom>
mL/min/kg

>  <measuredNumber>
267

$$$$
>  <compound>
CC(=O)N1CC2CC(Nc3nc(Nc4cnn(C5CCCNC5)c4)ncc3Cl)CC2C1 (stereo not drawn)

>  <uom>
mL/min/kg

>  <measuredNumber>
36.1

$$$$
>  <compound>
Cn1cc(Nc2ncc(Cl)c(NC3CCC4(CC3)CCN(C(=O)C3CC3)CC4)n2)cn1

>  <uom>
mL/min/kg

>  <measuredNumber>
745

$$$$
>  <compound>
Cn1cc(Nc2ncc(Cl)c(NC3CC4CN(CC(C)(C)O)CC4C3)n2)cn1 (stereo not drawn)

>  <uom>
mL/min/kg

>  <measuredNumber>
395

$$$$
>  <compound>
CC(O)Cn1cc(Nc2nccc(NC3CC4CN(C(=O)NC5CC5)CC4C3)n2)cn1 (stereo not drawn)

>  <uom>
mL/min/kg

>  <measuredNumber>
6.6

$$$$
>  <compound>
Cn1cc(Nc2ncc(Cl)c(NC3CC4CN(c5ccc(C#N)nn5)CC4C3)n2)cn1 (stereo not drawn)

>  <uom>
mL/min/kg

>  <measuredNumber>
308

$$$$

[a] CC(O)Cn1cc(Nc2ncc(Cl)c(NC3CC4CN(S(C)(=O)=O)CC4C3)n2)cn1 (stereo not drawn)
[b] Cn1cc(Nc2ncc(Cl)c(NC3CC4CN(S(=O)(=O)C5CC5)CC4C3)n2)cn1 (stereo not drawn)
Exercise: Lower CLint scaled at 5 μM: a or b ? Which one? Tell me its label.
Key: a

// data source = patent US9938257B2
